Recorded Cyno Primary Hepatocyte Editing % 100 for the following molecules
tested on: PCSK9 gene; assay: PCSK9 gRNA/SpCas9 editing in primary cynomolgus hepatocytes (Tables 2, 22); assay type: cell-based, cynomolgus monkey; settings: 100 ng/RNA/mL; SpCas9 mRNA MS002 1:1 by weight
In the oligonucleotide strings, read from the 5' end, every base follows the letter of its sugar. An asterisk marks phosphorothioate; unmarked linkages are phosphodiester. Other units and linkages are bracketed, terminal groups are in braces. A string of capitals states the bases alone. m = 2'-O-methyl; r = 2'-OH (RNA)
Numbers only here, please. The scale is %.

Reference set (2 entries):
molecule	Cyno Primary Hepatocyte Editing % 100 [%]
GA202: PCSK9 gRNA; protospacer AAGCGGGTCCCGTCCTCCTC (SEQ ID NO: 196) (nucleic acid, sugars from the 5' end m3 r94 m3, linkages s3 o93 s3 (s phosphorothioate, o phosphodiester), T or U not given here) guide: AAGCGGGUCCCGUCCUCCUCGUUUUAGAGCUAGAAAUAGCAAGUUAAAAUAAGGCUAGUCCGUUAUCAACUUGAAAAAGUGGCACCGAGUCGGUGCUUUU	1.54
GA243: PCSK9 gRNA; protospacer GGCGAGGGCTGGGGTCGTGC (SEQ ID NO: 236) (nucleic acid, sugars from the 5' end m3 r94 m3, linkages s3 o93 s3 (s phosphorothioate, o phosphodiester), T or U not given here) guide: GGCGAGGGCUGGGGUCGUGCGUUUUAGAGCUAGAAAUAGCAAGUUAAAAUAAGGCUAGUCCGUUAUCAACUUGAAAAAGUGGCACCGAGUCGGUGCUUUU	0.51

Query: // query Cyno Primary Hepatocyte Editing % 100 value for entry GA160: PCSK9 gRNA; protospacer GCCTTGCGTTCCGAGGAGGA (SEQ ID NO: 154) (nucleic acid, sugars from the 5' end m3 r94 m3, linkages s3 o93 s3 (s phosphorothioate, o phosphodiester), T or U not given here) guide: GCCUUGCGUUCCGAGGAGGAGUUUUAGAGCUAGAAAUAGCAAGUUAAAAUAAGGCUAGUCCGUUAUCAACUUGAAAAAGUGGCACCGAGUCGGUGCUUUU
Response: 1.38

Query: What value of Cyno Primary Hepatocyte Editing % 100 has been reported for the following molecule? GA187: PCSK9 gRNA; protospacer CTCCTCGATGTAGTCGACAT (SEQ ID NO: 181) (nucleic acid) guide: mC*mU*mC*rCrUrCrGrArUrGrUrArGrUrCrGrArCrArUrGrUrUrUrUrArGrArGrCrUrArGrArArArUrArGrCrArArGrUrUrArArArArUrArArGrGrCrUrArGrUrCrCrGrUrUrArUrCrArArCrUrUrGrArArArArArGrUrGrGrCrArCrCrGrArGrUrCrGrGrUrGrCrU*mU*mU*mU
Response: 3.77

Query: What value of Cyno Primary Hepatocyte Editing % 100 has been recorded for this entry: GA184: PCSK9 gRNA; protospacer ATGGAAGACATGCAGGATCT (SEQ ID NO: 178) (nucleic acid) guide: mA*mU*mG*rGrArArGrArCrArUrGrCrArGrGrArUrCrUrGrUrUrUrUrArGrArGrCrUrArGrArArArUrArGrCrArArGrUrUrArArArArUrArArGrGrCrUrArGrUrCrCrGrUrUrArUrCrArArCrUrUrGrArArArArArGrUrGrGrCrArCrCrGrArGrUrCrGrGrUrGrCrU*mU*mU*mU
Response: 2.90

Source listed as patent US20250152746A1.
